# credit: paper PMC9860126

Parameter: Kd. Scope: all listed entries.
Study System: HpNikR E56A (Helicobacter pylori G27, UniProt A1YSQ9 1-148, E56A)
Assay Procedure: fluorescence anisotropy; Ni(II)-bound; FA: 5 nM DNA, 20 mM Tris pH 7.6, 100 mM NaCl, 3 mM MgSO4, temperature not stated (Ni loading 1.2 eq NiSO4 per monomer at RT). EMSA: 20 mM Tris pH 7.5, 100 mM KCl, 3 mM MgCl2, 0.1% IGEPAL, 5% glycerol, 0.1 mg/ml herring sperm DNA, RT; gel with 800 uM NiSO4 at 4 C
Condition Details: protein: recombinant; tags: none stated; chain copies: 4; label: fluorescein on internal thymine (T14 of strand 1); blunt
The answer is to be given in nM; state only the numeric part.

{"Binder": "ureA-perf promoter 32 bp (dsDNA) DNA 1: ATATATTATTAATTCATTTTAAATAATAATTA DNA 2: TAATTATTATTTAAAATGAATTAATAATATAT", "Assay Endpoint": "Kd", "Value Reported": 5.9}

Then this binder:
response.value for ureA promoter 32 bp (FA) (dsDNA) DNA 1: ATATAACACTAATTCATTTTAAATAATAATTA DNA 2: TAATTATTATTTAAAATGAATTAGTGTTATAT (field: Kd) = 5.4
